assayed-system: human κ opioid receptor (Homo sapiens, UniProt P41145)
Sequence (P41145 whole entry): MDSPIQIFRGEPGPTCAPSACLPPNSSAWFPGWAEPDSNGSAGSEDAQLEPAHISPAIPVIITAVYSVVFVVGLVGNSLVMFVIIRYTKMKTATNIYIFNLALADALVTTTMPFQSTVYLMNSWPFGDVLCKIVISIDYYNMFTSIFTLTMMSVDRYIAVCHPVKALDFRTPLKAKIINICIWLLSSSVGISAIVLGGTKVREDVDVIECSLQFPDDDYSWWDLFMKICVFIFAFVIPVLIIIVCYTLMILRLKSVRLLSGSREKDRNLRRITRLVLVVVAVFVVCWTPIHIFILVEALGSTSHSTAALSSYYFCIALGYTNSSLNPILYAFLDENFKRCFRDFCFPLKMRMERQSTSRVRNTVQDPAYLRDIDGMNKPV
For each record, write down the corresponding Ki.
One number for each entry, in nM.

Example entries and their recorded answers appear below.
Lookup: For the molecule CC1C2Cc3ccc(C(=O)NCCc4ccc(-c5ccc(NC(=O)OC(C)(C)C)cc5)cc4)cc3C1(C)CCN2CC1CC1 (stereo not shown) [SJJ-C-027b] , report Ki.
Found: 3.4

Lookup: Give recorded Ki. CC1C2Cc3ccc(C(=O)NCCc4ccc(-c5ccc(CN(C)C)cc5)cc4)cc3C1(C)CCN2CC1CC1 (stereo not shown) [SJJ-C-013b]
Found: 1.9

Lookup: Return Ki for the following molecule: CC1C2Cc3ccc(C(=O)NCCc4ccc(-c5cccc(N(C)C)c5)cc4)cc3C1(C)CCN2CC1CC1 (stereo not shown) [SJJ-B-074c]
Found: 0.26

Turning now to a further record.
Lookup: Return Ki (reported value) for this molecule: CC1C2Cc3ccc(C(=O)NCCc4ccc(-c5ccc(N)cc5)cc4)cc3C1(C)CCN2CC1CC1 (stereo not shown) [SJJ-B-112g]
Found: 0.39

Values were extracted from patent US20100190817A1.
